System: HCC-2998 colon
Experiment: NCI-60 one-dose screen, 48 h
Details: 10 µM unless noted
The panel holds about 83,000 compounds, 20% with a hit somewhere; the sample as a whole holds those more often. Calls of active or inactive are those of the source. The calls were made as follows: active = growth percent below 10; inactive = the rest.
Respond using exactly one of the listed classes: active, inactive

>  <Compound>
COc1ccc(-c2csc(NC(=O)CSc3nc(-c4ccccc4)cc(=O)[nH]3)n2)cc1

>  <Experimental target>
HCC-2998 colon

>  <Label>
inactive

$$$$
>  <Compound>
COc1cc(/C=C\c2cc(/C=C\c3ccc(O)c(OC)c3)n(C(=O)COc3ccc(Cl)cc3Cl)n2)ccc1O

>  <Experimental target>
HCC-2998 colon

>  <Label>
inactive

$$$$
>  <Compound>
CC1=C(C(=O)OC(C)C)C(c2ccc3c(c2)OCO3)NC(=S)N1 (configuration not stated)

>  <Experimental target>
HCC-2998 colon

>  <Label>
inactive

$$$$
>  <Compound>
Cc1nc2c(=O)[nH]c(SCC(=O)Nc3cccc(F)c3)nc2[nH]c1=O

>  <Experimental target>
HCC-2998 colon

>  <Label>
inactive

$$$$
>  <Compound>
COc1cc(NC(C)CCCNC(C)C)c2ncccc2c1OC (configuration not stated)

>  <Experimental target>
HCC-2998 colon

>  <Label>
inactive

$$$$
>  <Compound>
Cc1ccccc1/C=C1\CN(C(=O)OC(C)(C)C)C/C(=C\c2ccccc2C)C1=O

>  <Experimental target>
HCC-2998 colon

>  <Label>
active

$$$$

Next:
[Q] Please let me know the test result on file for `O=C1/C(=C\c2cn(-c3ccccc3)nc2-c2ccc(-c3cccs3)cc2)CCc2ccccc21` .
[A] inactive

* * *

A collection of molecules and their measured growth
Test system: RXF 393 renal
Assay: NCI-60 one-dose screen, 48 h (100 = growth as untreated, 0 = no growth, -100 = all killed)
Conditions: 10 µM unless noted
This is part of a sample that, as a whole, favours compounds with a hit. Of some 83,000 tested, about 20% had one in any assay.
Please state the figure in %; there is no need to write the unit.

Below, each entry is followed by its recorded growth result.
>  <Input smiles>
CCc1nc2c(=O)[nH]cnc2o1

>  <growth (%)>
102

$$$$
>  <Input smiles>
CC1=Nc2cnc(Nc3ccc(OCCN4CCCCC4)cc3)nc2Nc2ccccc21

>  <growth (%)>
33.6

$$$$
>  <Input smiles>
Cc1ccc(Sc2oc(-c3ccc(C)cc3)nc2[P+](c2ccccc2)(c2ccccc2)c2ccccc2)cc1

>  <growth (%)>
-18.8

$$$$
>  <Input smiles>
CN(C)c1ccc(/C=C/C(=O)c2ccc(-n3cc(CN4CCN(c5cc6c(cc5F)c(=O)c(C(=O)O)cn6C5CC5)CC4)nn3)cc2)cc1

>  <growth (%)>
45

$$$$
>  <Input smiles>
CC1=C(Nc2ccc(N3CCN(C)CC3)cc2)C(=O)c2cncnc2C1=O

>  <growth (%)>
118

$$$$

[Q] # get_value(readout='growth', item= `CCN1CCN(Cc2cn(CC(=O)Nc3ccc4c(ccn4Cc4ccccc4)c3)nn2)CC1` )
[A] 111

[Q] # get_value(readout='growth', item= `C#Cc1cccc(Nc2ncnc3ccc(-c4cncc(NS(C)(=O)=O)c4)cc23)c1` )
[A] 7.78

[Q] # get_value(readout='growth', item= `N#Cc1c(N)nnn1Cc1cc(=O)oc2c1ccc1ccccc12` )
[A] 104
